molecular target: Integrin alpha-V/beta-5 (Homo sapiens, UniProt P06756+P18084); assay: Agonist activity at alphaVbeta5 in human MCF7 cells assessed as increase in cell adhesion to fibrinogen pre-incubated for 30 mins before fibrinogen and further incubated for 1 hr by nitrophenyl-N-acetyl-beta-D-glucosaminide substrate based chromogenic assay
Sequence (P06756 31-889 limits assumed): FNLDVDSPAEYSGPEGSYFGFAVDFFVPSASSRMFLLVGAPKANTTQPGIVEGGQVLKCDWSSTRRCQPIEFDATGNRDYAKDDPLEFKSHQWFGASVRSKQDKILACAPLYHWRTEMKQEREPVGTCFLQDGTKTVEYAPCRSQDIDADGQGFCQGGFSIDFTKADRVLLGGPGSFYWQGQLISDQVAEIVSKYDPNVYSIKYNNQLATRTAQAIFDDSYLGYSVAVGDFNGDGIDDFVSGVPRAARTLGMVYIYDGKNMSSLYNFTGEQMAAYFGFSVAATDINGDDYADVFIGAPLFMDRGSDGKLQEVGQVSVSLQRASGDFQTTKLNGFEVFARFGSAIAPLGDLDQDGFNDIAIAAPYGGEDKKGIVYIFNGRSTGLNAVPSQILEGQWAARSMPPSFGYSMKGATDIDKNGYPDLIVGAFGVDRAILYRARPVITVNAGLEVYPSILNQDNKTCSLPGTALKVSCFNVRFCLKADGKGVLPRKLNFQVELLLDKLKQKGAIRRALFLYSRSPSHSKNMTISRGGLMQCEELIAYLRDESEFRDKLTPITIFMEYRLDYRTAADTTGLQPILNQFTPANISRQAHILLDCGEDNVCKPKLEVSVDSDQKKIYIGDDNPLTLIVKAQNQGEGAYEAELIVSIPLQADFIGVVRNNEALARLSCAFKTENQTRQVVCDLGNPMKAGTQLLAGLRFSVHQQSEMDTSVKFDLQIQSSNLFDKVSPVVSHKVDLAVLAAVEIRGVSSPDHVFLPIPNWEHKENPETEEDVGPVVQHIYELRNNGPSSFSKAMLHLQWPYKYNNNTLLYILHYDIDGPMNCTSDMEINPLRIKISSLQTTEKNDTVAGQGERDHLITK
Sequence (P06756 891-1048 limits assumed): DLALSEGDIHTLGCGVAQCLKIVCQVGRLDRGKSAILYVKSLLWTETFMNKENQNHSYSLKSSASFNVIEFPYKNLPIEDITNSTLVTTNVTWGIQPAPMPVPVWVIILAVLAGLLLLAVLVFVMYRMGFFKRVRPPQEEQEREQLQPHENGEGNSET
Sequence (P18084 24-799 limits assumed): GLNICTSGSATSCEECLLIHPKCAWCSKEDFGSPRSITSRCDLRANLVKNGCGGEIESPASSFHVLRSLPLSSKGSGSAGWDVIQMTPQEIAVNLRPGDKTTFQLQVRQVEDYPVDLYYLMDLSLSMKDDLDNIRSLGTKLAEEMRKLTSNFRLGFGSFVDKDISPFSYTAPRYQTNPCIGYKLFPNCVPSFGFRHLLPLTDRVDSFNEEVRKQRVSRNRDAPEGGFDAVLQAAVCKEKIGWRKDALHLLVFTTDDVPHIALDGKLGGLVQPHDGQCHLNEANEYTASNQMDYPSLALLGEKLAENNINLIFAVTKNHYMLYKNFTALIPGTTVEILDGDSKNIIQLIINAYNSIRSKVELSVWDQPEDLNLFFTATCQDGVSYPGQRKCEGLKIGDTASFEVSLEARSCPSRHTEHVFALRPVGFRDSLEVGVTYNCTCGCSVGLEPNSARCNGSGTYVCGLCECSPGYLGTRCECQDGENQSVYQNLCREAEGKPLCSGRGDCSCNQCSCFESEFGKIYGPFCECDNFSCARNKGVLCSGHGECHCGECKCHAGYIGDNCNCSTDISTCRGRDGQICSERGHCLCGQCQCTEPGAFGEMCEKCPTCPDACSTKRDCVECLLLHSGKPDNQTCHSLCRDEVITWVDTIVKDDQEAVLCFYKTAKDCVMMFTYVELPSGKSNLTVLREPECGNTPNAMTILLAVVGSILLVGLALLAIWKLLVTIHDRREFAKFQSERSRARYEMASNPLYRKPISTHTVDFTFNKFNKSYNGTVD
pEC50: −log10 of the molar value.
observed.property: pEC50

q: Given the compound NCc1ccc(NC(=O)N2C(=O)CC2CC(=O)NCC(=O)O)cc1.O=C(O)C(F)(F)F (centres undefined) , what is its reported pEC50?
a: 6.30

q: Given the compound Cc1ccccc1NC(=O)N1C(=O)CC1CC(=O)NCCC(=O)O (centres undefined) , what is its reported pEC50?
a: 6.17

q: Given the compound Nc1ccc(CNC(=O)N2C(=O)C[C@H]2C(=O)O)cc1.O=C(O)C(F)(F)F , what is its reported pEC50?
a: < 5.30

q: Given the compound O=C(O)CC1CC(=O)N1C(=O)NCc1ccccc1 (centres undefined) , what is its reported pEC50?
a: < 5.30

q: Given the compound O=C(O)CC1CC(=O)N1 (centres undefined) , what is its reported pEC50?
a: 6.42

q: Given the compound Nc1ccc(CNC(=O)N2C(=O)CC2CC(=O)O)cc1.O=C(O)C(F)(F)F (centres undefined) , what is its reported pEC50?
a: < 5.30

q: Given the compound NCc1ccc(NC(=O)N2C(=O)CC2CC(=O)NCCC(=O)O)cc1.O=C(O)C(F)(F)F (centres undefined) , what is its reported pEC50?
a: < 5.30

q: Given the compound Cc1ccccc1NC(=O)N1C(=O)C[C@H]1C(=O)NCCC(=O)O , what is its reported pEC50?
a: < 5.30

q: Given the compound Cc1ccccc1NC(=O)N1C(=O)CC1CC(=O)NCC(=O)O (centres undefined) , what is its reported pEC50?
a: < 5.30

###

target: Integrin alpha-5/beta-1 (Homo sapiens, UniProt P05556+P08648); assay: Agonist activity at alpha5beta1 in human K562 cells assessed as increase in cell adhesion to fibronectin pre-incubated for 30 mins before fibronectin and further incubated for 1 hr by nitrophenyl-N-acetyl-beta-D-glucosaminide substrate based chromogenic assay
Sequence (P05556 21-798 limits assumed): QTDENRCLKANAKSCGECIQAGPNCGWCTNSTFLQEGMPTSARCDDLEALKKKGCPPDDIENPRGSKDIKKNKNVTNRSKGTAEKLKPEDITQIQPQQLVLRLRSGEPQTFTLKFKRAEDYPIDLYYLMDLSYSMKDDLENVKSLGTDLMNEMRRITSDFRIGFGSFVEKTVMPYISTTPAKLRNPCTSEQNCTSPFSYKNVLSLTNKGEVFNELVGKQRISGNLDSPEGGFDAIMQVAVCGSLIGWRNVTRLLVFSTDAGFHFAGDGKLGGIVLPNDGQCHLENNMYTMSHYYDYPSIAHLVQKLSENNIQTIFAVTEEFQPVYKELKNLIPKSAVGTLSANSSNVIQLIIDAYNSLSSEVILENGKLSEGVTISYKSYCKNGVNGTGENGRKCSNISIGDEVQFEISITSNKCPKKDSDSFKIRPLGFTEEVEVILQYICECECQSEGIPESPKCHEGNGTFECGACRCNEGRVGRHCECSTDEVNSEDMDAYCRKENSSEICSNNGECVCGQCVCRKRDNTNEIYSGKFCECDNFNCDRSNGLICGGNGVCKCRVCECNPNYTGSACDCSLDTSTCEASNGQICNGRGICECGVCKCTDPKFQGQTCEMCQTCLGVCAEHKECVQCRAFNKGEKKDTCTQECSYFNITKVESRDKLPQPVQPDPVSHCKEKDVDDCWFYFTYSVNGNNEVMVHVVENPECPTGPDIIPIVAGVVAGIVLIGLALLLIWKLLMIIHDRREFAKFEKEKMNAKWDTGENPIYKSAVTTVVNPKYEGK
Sequence (P08648 42-894 limits assumed): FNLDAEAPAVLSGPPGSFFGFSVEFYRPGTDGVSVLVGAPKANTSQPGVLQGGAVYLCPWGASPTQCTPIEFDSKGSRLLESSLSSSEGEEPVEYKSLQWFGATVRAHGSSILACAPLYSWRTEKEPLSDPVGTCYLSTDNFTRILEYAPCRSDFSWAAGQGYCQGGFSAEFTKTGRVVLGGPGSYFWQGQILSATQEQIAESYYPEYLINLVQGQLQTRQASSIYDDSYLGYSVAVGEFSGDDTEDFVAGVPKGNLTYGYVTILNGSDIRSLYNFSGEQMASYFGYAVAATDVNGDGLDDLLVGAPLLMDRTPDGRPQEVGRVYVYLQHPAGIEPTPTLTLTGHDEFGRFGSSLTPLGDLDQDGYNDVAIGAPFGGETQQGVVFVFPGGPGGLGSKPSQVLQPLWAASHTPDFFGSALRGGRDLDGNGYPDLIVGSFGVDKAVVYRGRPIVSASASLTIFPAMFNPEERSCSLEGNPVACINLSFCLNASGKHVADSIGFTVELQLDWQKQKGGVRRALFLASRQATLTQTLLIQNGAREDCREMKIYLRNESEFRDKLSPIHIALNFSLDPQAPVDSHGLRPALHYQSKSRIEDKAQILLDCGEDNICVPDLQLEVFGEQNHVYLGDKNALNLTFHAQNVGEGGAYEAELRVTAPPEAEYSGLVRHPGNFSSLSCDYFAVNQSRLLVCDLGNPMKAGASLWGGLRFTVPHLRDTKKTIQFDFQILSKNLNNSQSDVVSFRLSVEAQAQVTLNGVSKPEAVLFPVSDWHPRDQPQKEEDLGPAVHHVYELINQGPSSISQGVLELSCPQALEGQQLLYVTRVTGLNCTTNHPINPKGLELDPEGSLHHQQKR
Sequence (P08648 895-1049 limits assumed): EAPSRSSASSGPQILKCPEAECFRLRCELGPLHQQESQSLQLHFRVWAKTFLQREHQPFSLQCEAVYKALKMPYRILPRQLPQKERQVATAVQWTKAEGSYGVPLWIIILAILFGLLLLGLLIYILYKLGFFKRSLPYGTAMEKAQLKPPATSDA
observed.property: EC50 (nM)
Quick reminder: number only, in nM, skip the unit.

q: Given the compound Nc1ccc(CNC(=O)N2C(=O)CC2CC(=O)O)cc1.O=C(O)C(F)(F)F (configuration not stated) , what is its reported EC50?
a: 44.5

q: Given the compound NCc1ccc(NC(=O)N2C(=O)CC2CC(=O)NCCC(=O)O)cc1.O=C(O)C(F)(F)F (configuration not stated) , what is its reported EC50?
a: 6.7

q: Given the compound Cc1ccccc1NC(=O)N1C(=O)CC1CC(=O)NCCC(=O)O (configuration not stated) , what is its reported EC50?
a: 49

q: Given the compound Cc1ccccc1NC(=O)N1C(=O)CC1CC(=O)NCC(=O)O (configuration not stated) , what is its reported EC50?
a: 9.9

q: Given the compound O=C(O)CC1CC(=O)N1 (configuration not stated) , what is its reported EC50?
a: 1030

###

Assignment: determine reported IC50 for the given compounds.
biological target: Integrin alpha-V/beta-5 (Homo sapiens, UniProt P06756+P18084); assay: Inhibition of fibrinogen binding to alphaVbeta5 isolated form human mCf7 cells incubated for 1 hr by […] competitive solid-phase binding assay

q: Given the compound Cc1ccccc1NC(=O)N1C(=O)CC1CC(=O)O (stereo not given) , what is its reported IC50?
a: > 1000 nM

q: Given the compound NCc1ccc(NC(=O)N2C(=O)CC2CC(=O)NCCC(=O)O)cc1.O=C(O)C(F)(F)F (stereo not given) , what is its reported IC50?
a: > 1000 nM

q: Given the compound NCc1ccc(NC(=O)N2C(=O)CC2CC(=O)NCC(=O)O)cc1.O=C(O)C(F)(F)F (stereo not given) , what is its reported IC50?
a: 104 nM

q: Given the compound Cc1ccccc1NC(=O)N1C(=O)C[C@H]1C(=O)O , what is its reported IC50?
a: > 1000 nM

q: Given the compound O=C(O)CC1CC(=O)N1 (stereo not given) , what is its reported IC50?
a: 2.4 nM

q: Given the compound Cc1ccccc1NC(=O)N1C(=O)CC1CC(=O)NCC(=O)O (stereo not given) , what is its reported IC50?
a: > 1000 nM

q: Given the compound NCc1ccc(NC(=O)N2C(=O)CC2CC(=O)O)cc1.O=C(O)C(F)(F)F (stereo not given) , what is its reported IC50?
a: 3.8 nM

q: Given the compound Cc1ccccc1NC(=O)N1C(=O)CC1CC(=O)NCCC(=O)O (stereo not given) , what is its reported IC50?
a: 634 nM

q: Given the compound Nc1ccc(CNC(=O)N2C(=O)CC2CC(=O)O)cc1.O=C(O)C(F)(F)F (stereo not given) , what is its reported IC50?
a: > 1000 nM

q: Given the compound Nc1ccc(CNC(=O)N2C(=O)C[C@H]2C(=O)O)cc1.O=C(O)C(F)(F)F , what is its reported IC50?
a: > 1000 nM
